- System: RPMI-8226 leukemia
- method.description: NCI tumour cell line growth inhibition, 48 h
test.readout: TGI

Check out these entries, answers already filled in.
compound	TGI
NC(N)=N/N=C/c1c(-c2ccccc2)nc2n1ccc1nc(-c3ccccc3)c(/C=N/N=C(N)N)n12	> 100 µM
CCOC(=O)c1oc2ccc(OC)c3c2c1CCC3	> 100 µM
CN(C)c1nc(=Nc2ccc3ccccc3c2)ss1	52.5 µM
O=C(O)C/C=C/CC(=O)O	> 100 µM
O=C(O)C1(P(=O)(O)O)CC1	> 100 µM

Enquiry: Item under review: CC(C)CC(CC1=CCC2CC1C2(C)C)C1=C(O)C(C)(C)C(=O)C(C)(C)C1=O (stereo unspecified) . Reported TGI?
Return: 0.558 µM

---

- Test system: SW-620 colon
- method.description: NCI tumour cell line growth inhibition, 48 h; in the data active = GI50 below about 0.43 µM; inactive = the rest
Respond only with the outcome that fits, drawn from yes (1) = active, no (0) = inactive

Here's what some known entries look like.
compound	class.name
O=c1[nH]c2ccccc2nc1-c1c[nH]c2ccccc12	no (0)
COc1ccc2cc(-c3ccoc(=O)c3-c3cc(OC)c(OC)c(OC)c3)ccc2c1	yes (1)
O=C(c1ccccc1)C(CN1CCOCC1)c1ccccc1 (centres undefined)	yes (1)

# evaluate next
Enquiry: Returns: the outcome recorded for COc1ccc(C2CC(c3cc(OC)c(OC)c(OC)c3)=NN2C(C)=O)cc1OCC(=O)Nc1nc2ccc(C(F)(F)F)cc2s1 (centres undefined) in this assay.
Return: no (0)

---

- System: A549 NSCLC
- method.description: NCI tumour cell line growth inhibition, 48 h; in the data active = GI50 below about 0.43 µM; inactive = the rest
Assign a class; possible classes are active, inactive

Use these answered entries as a reference point.
compound	class.name
O=C(C1CCCCC1)[C@@H]1[C@]2(C(=O)NC3CCCCC32)[C@@H]2CCCN2[C@@]12C(=O)NC1CCC(Cl)CC12 (stereo not given in full)	inactive
C=CC(=O)Nc1cccc(C)c1Nc1cc(-c2cccnc2Cc2c(C)c(OC)cc(OC)c2C)ncn1	inactive
CC(C)CC(CC1=CCC2CC1C2(C)C)C1=C(O)C(C)(C)C(=O)C(C)(C)C1=O (stereo not given)	active
CC(C)(C)c1ccc(OCCCCCCN2CCNCC2)cc1	inactive
Cc1ccc(-c2cc(-c3ccc(C)cc3)nc(NCCNc3ccnc4cc(Cl)ccc34)n2)cc1	inactive

Enquiry: So what was the verdict on COC(=O)C(Cc1ccccc1)NC(=O)NC(=O)NC(=O)CI (stereo not given) in this test?
Return: inactive

Enquiry: Further, for O[C@H]1CO[C@H]2[C@@H]1OC[C@@H]2Oc1ccc(Nc2ccnc(Nc3ccc(O[C@H]4CO[C@H]5[C@@H]4OC[C@@H]5O)c(Cl)c3)n2)cc1Cl ?
Return: inactive

Enquiry: Again, but for N/C(=N\N=C\c1ccc(-c2ccccc2)cc1)N[N+](=O)[O-]
Return: inactive

Enquiry: Also O=C1C(=O)c2c(nc3ccc(Cl)cn23)-c2ccccc21 ?
Return: inactive

Enquiry: Please do the same for Nc1ncnc2[nH]ncc12 as well.
Return: inactive

---

- System: SK-MEL-28 melanoma
- method.description: NCI tumour cell line growth inhibition, 48 h
We begin with a simple list: items and their reported log10(TGI).
Remember, log10 of TGI, in µM.

Solved entries (count: 5):
compound	test.readout	recorded.result
CC(CN1CCN(CCOCCO)CC1)CN1c2ccccc2Sc2ccc(Cl)cc21 (configuration not stated)	log10(TGI)	0.51
O=C(c1ccccc1)C(CN1CCOCC1)c1ccccc1 (configuration not stated)	log10(TGI)	0.53
C=C1CC2OC2(C(=O)O[C@H]2CCC3[C@@H]4CCC5=CC(=O)CC[C@]5(C)C4CC[C@@]32C)C1=O (some centres not stated)	log10(TGI)	1.25
COc1ccc(C2=C(Cl)c3cc(OC)c(OC)cc3C2Cl)cc1OC (configuration not stated)	log10(TGI)	1.54
Cc1sc(Cc2ccccc2)nc1-c1ccc(N)cc1	log10(TGI)	1.79

Enquiry: Value lookup for log10(TGI); key = COc1ccc(C(OCC2OC(n3ccc(NC(=O)c4ccccc4)nc3=O)C(O)C2O)(c2ccccc2)c2ccccc2)cc1 (configuration not stated)
Return: 0.90

Enquiry: Also need Brc1cccc(C2SCc3nc4ccccc4n32)c1 (configuration not stated) , thanks.
Return: 1.68

Enquiry: Please do the same for CCN=C1C=CC(=C(c2ccc(N)cc2)c2ccc(N(CC)CC)c(C)c2)C=C1 as well.
Return: 0.29

Enquiry: Subsequent entry: CNC(=O)N1CN(c2ccccc2)C2(CCN(CCCC(=O)c3ccc(F)cc3)CC2)C1=O
Return: 1.58

Enquiry: Same for Cc1cc(C)c(C2=NOC(c3ccccc3)(c3cc(=O)n(-c4ccccc4)s3)O2)c(C)c1 (configuration not stated)
Return: 1.97

Enquiry: Please answer likewise for C/C(=N\Nc1ccc2ccccc2n1)c1ccccn1
Return: 1.21

Enquiry: Okay, and CC1=C(N2CC2)C(=O)c2nc3n(c2C1=O)CCC3OC(=O)CCl (configuration not stated) ?
Return: -0.85

Enquiry: Quick one: CCOc1ccc2nc(NC(=O)c3c/c(=N\NC(=O)C[N+](C)(C)C)c4ccc(O)cc4o3)sc2c1
Return: 1.11

This collection of values is drawn from PubChem BioAssay (NCI).
